# Test system: BEAS2B lung epithelial cells
# TEST: In vitro cytotoxicity, Cell-Titer Glo viability, BEAS2B
# Format: cell-based
# COND: 48 hours
Measured Toxicity in BEAS 2B (Lung) LD50 by item

// below: answered compounds
STRUCTURE SMILES STRING: COc1ccc2c(c1)C(=O)N1CCC[C@H]1c1c(C(=O)NC(C)(C)C)ncn1-2
Toxicity in BEAS 2B (Lung) LD50: >400 µM
//
STRUCTURE SMILES STRING: COc1ccc2c(c1)C(=O)N1CCC[C@H]1c1c(C(=O)OCC(C)C)ncn1-2
Toxicity in BEAS 2B (Lung) LD50: >200 µM
//
STRUCTURE SMILES STRING: COc1ccc2c(c1)C(=O)N1CCC[C@H]1c1c(C(=O)OC(C)(C)C)ncn1-2
Toxicity in BEAS 2B (Lung) LD50: >200 µM
//
STRUCTURE SMILES STRING: CCNC(=O)c1ncn2c1[C@@H]1CCCN1C(=O)c1cc(OC)ccc1-2
Toxicity in BEAS 2B (Lung) LD50: >400 µM
//
STRUCTURE SMILES STRING: COc1ccc2c(c1)C(=O)N1CCC[C@H]1c1c(C(=O)N(C)C)ncn1-2
Toxicity in BEAS 2B (Lung) LD50: >400 µM
//
STRUCTURE SMILES STRING: [2H]C([2H])([2H])Oc1ccc2c(c1)C(=O)N1CCC[C@H]1c1c(C(=O)O)ncn1-2
Toxicity in BEAS 2B (Lung) LD50: >400 µM

Task: Can you look up the measured Toxicity in BEAS 2B (Lung) LD50 of [2H]C([2H])([2H])Oc1ccc2c(c1)C(=O)N1CCC[C@H]1c1c(C(=O)OC(C)(C)C)ncn1-2 for me?
Result: >200 µM

Task: I am curious: what Toxicity in BEAS 2B (Lung) LD50 value has been reported for COc1ccc2c(c1)C(=O)N1CCC[C@H]1c1c(C(=O)O)ncn1-2 ?
Result: >400 µM
